# ASSAYED SYSTEM: mTLR7 (Mus musculus)
# Construct: Splenocytes isolated from male C57/BL6 mice; from tissue; host or cells: splenocytes from the spleen of male C57BL/6 mice
# Sequence (P58681 27-1050): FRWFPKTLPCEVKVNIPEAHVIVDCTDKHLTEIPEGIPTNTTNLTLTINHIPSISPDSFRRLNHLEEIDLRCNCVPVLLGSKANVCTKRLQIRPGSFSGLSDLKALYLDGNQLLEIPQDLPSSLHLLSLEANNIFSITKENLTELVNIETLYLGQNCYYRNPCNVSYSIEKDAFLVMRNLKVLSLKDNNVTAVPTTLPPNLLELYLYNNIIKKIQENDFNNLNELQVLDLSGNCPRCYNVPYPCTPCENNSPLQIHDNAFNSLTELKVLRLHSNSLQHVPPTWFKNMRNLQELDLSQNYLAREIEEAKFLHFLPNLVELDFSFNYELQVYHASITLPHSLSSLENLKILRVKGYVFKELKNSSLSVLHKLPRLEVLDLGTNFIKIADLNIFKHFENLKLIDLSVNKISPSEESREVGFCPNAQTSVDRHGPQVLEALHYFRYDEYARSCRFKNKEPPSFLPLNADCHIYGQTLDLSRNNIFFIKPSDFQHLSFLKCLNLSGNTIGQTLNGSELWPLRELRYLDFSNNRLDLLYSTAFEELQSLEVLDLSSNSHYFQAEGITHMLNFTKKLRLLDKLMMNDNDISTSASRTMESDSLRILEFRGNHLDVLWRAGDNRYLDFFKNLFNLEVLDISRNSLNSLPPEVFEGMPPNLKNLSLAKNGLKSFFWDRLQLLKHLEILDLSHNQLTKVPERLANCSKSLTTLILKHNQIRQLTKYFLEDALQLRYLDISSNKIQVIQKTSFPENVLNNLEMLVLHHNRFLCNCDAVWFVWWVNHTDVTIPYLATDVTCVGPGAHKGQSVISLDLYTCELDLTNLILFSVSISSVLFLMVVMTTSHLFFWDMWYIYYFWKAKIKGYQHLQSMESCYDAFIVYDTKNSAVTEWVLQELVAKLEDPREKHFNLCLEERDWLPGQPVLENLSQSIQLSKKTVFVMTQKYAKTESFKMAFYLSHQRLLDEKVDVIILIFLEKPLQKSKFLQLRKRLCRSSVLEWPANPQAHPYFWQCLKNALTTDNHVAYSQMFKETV
# TEST DETAILS: mTLR7 antagonism (IL-6 and TNF-α release assay) in mouse splenocytes, R0006/DOTAP stimulated
# Format: cell-based
# PARTICULARS: 1 μM; IL-6 release, mouse splenocytes; read-out: mTLR7 inhibitory activity (% at 1 μM), IL-6
Collected inhibition at 1 µM values appear next to each entry.
PROPERTY MEASURED: inhibition at 1 µM (%)

• c1cc2[nH]c(CN3CCOCC3)cc2c(-c2ccc(OC3CCNCC3)cc2)n1 [Example A49] = 2
• CC(C)N1CCN(c2ccc(-c3nccc4[nH]c(CN5CCOCC5)cc34)cn2)CC1 [Example A53] = 100
• CC(C)N1CC=C(c2ccc(-c3nccc4[nH]c(CN5CCOCC5)cc34)cn2)CC1 [Example A52] = 71
• Cc1cc2c(cc(CCN3CCOCC3)n2C)c(-c2ccc(N3CCN(C(C)C)CC3)cc2C(F)(F)F)n1 [Example B17] = 93
• CC(C)N1CCC(c2ccc(-c3nccc4[nH]c(CN5CCOCC5)cc34)cc2)CC1 [Example A70] = 100
• Cc1cc2c(cc(CCN3CCOCC3)n2C)c(-c2ccc(N3CCN(C(C)C)CC3)cc2F)n1 [Example B19] = 100
• Cc1cc2[nH]c(CCCN3CCOCC3)cc2c(-c2ccc(N3CCN(C(C)C)CC3)cc2)n1 [Example C3] = 100
• CC(C)N1CCN(c2ccc(-c3nccc4[nH]c(CN5CCC6(CC5)CC(O)C6)cc34)cc2)CC1 [Example A13] = 98

====

# ASSAYED SYSTEM: mTLR9 (Mus musculus, UniProt Q9EQU3)
# Construct: Splenocytes isolated from male C57/BL6 mice; from tissue; host or cells: splenocytes from the spleen of male C57BL/6 mice
# Sequence (Q9EQU3 26-1032): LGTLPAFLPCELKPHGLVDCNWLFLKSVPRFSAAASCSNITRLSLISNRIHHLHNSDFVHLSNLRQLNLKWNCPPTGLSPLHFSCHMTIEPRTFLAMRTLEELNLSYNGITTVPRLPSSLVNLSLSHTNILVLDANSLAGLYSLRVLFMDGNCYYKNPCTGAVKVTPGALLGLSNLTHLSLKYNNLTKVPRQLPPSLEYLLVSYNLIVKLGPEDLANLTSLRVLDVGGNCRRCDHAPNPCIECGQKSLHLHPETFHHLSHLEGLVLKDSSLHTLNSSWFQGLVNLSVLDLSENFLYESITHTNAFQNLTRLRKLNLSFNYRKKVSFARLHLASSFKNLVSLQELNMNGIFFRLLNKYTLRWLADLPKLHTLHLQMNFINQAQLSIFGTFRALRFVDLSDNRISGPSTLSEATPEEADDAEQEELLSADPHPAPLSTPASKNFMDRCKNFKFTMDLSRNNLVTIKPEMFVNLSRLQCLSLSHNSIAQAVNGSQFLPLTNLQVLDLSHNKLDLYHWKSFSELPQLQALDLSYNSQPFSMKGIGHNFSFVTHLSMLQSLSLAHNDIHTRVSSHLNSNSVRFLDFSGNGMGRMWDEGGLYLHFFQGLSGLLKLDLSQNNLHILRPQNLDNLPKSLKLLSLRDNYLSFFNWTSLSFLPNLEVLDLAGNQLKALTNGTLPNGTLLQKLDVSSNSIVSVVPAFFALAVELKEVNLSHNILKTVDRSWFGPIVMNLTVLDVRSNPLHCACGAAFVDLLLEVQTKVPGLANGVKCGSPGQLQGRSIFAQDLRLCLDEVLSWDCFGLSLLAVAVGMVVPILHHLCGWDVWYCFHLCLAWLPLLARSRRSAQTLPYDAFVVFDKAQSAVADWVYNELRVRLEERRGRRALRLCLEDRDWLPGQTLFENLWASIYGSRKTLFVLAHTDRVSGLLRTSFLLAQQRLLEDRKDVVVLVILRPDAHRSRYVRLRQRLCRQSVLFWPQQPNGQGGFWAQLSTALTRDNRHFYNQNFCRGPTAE
# TEST DETAILS: mTLR9 antagonism (IL-6 and TNF-α release assay) in mouse splenocytes, CpG ODN-2006 stimulated
# Assay type: cell-based
# PARTICULARS: 1 μM; IL-6 release, mouse splenocytes; read-out: mTLR9 inhibitory activity (% at 1 μM), IL-6
PROPERTY MEASURED: inhibition at 1 µM (%)

- CC(C)N1CCN(c2ccc(-c3nccc4[nH]c(CCN5CCOCC5)cc34)cc2)CC1: 100
- Cc1cc2c(cc(CCN3CCOCC3)n2C)c(-c2cccc(N3CCN(C(C)C)CC3)c2)n1: 100
- Cc1nc(-c2ccc(N3CCN(C(C)C)CC3)cc2)c2cc(CCN3CCOCC3)[nH]c2c1C: 100
- Cc1cc2[nH]c(CCCN3CCOCC3)cc2c(-c2ccc(N3CCN(C(C)C)CC3)cc2)n1: 100
- CC(C)N1CCN(c2cccc(-c3nccc4[nH]c(CN5CCOCC5)cc34)c2)CC1: 100
- Cc1cc2[nH]c(CN3CCC4(CC3)CC(O)C4)cc2c(-c2ccc(N3CCN(C(C)C)CC3)cc2)n1: 96
- CC(C)N1CCC(c2ccc(-c3nccc4[nH]c(CN5CCOCC5)cc34)cn2)CC1: 25
- Cc1nc(-c2ccc(N3CCN(C(C)C)CC3)cc2)c2cc(CCN3CCCC3)[nH]c2c1C: 100
- c1cc2[nH]c(CN3CCOCC3)cc2c(-c2ccc(OC3CCNCC3)cc2)n1: 65

====

# ASSAYED SYSTEM: mTLR7 (Mus musculus, UniProt P58681)
# Construct: Splenocytes isolated from male C57/BL6 mice; from tissue; host or cells: splenocytes from the spleen of male C57BL/6 mice
# TEST DETAILS: mTLR7 antagonism (IL-6 and TNF-α release assay) in mouse splenocytes, R0006/DOTAP stimulated
# Type: cell-based
# PARTICULARS: 1 μM; TNF-α release, mouse splenocytes; read-out: mTLR7 inhibitory activity (% at 1 μM), TNF-α
Rule: 1.0 for inhibition at 1 µM not less than 80%, 0.0 for anything less.

- c1cc2[nH]c(CN3CCOCC3)cc2c(-c2ccc(OC3CCNCC3)cc2)n1 [Example A49]: 0.0
- CCN1CCN(c2ccc(-c3nccc4[nH]c(CN5CCOCC5)cc34)cc2)CC1 [Example A3]: 1.0
- CC(C)N1CCN(c2ccc(-c3nccc4[nH]c(CCN5CCOCC5)cc34)cc2)CC1 [Example B1]: 1.0
- Cc1cc2[nH]c(CN3CCOCC3)cc2c(-c2ccc(N3CCN(C(C)C)CC3)cc2)n1 [Example A4]: 1.0
- CC(C)N1CCC(Oc2ccc(-c3nccc4[nH]c(CN5CCOCC5)cc34)cc2)CC1 [Example A56]: 0.0
- CC(C)N1CCN(C2CCC(c3nccc4[nH]c(CN5CCOCC5)cc34)CC2)CC1 (centres unmarked) [Example A80]: 0.0
- Cc1nc(-c2ccc(N3CCN(C(C)C)CC3)cc2)c2cc(CCN3CCOCC3)[nH]c2c1C [Example B6]: 1.0
- COc1cc(N2CCN(C(C)C)CC2)ccc1-c1nc(C)cc2c1cc(CCN1CCOCC1)n2C [Example B20]: 0.0
- CC(C)N1CCN(c2ccc(-c3nccc4[nH]c(CN5CCC[C@@H]5C(=O)O)cc34)cc2)CC1 [Example A74]: 0.0
- CCN1CCN(c2ccc(-c3nc(C)cc4[nH]c(CN5CCOCC5)cc34)cc2)CC1 [Example A5]: 1.0
- Cc1cc2c(cc(CCN3CCOCC3)n2C)c(-c2ccc(N3CCN(C(C)C)[C@@H](C)C3)cc2)n1 [Example B23]: 1.0
- Cc1nc(-c2ccc(N3CCN(C)CC3)cc2)c2cc(CCN3CCOCC3)[nH]c2c1C [Example B7]: 1.0
- c1cc2[nH]c(CN3CCOCC3)cc2c(-c2ccc(N3CCNCC3)cc2)n1 [Example A42]: 0.0
- CN1CCN(c2ccc(-c3nccc4c3cc(CN3CCOCC3)n4C)cc2)CC1 [Example A9]: 1.0
- Cc1cc2c(cc(CN3CCOCC3)n2C)c(-c2ccc(N3CCN(C(C)C)CC3)cc2)n1 [Example A35]: 1.0
- CC(C)N1CCC(c2ccc(-c3nccc4[nH]c(CN5CCOCC5)cc34)cn2)CC1 [Example A64]: 0.0
- CC(C)N1CC=C(c2ccc(-c3nccc4[nH]c(CN5CCOCC5)cc34)cn2)CC1 [Example A52]: 0.0
- CC(C)N1CCN(c2ccc(-c3nccc4[nH]c(CN5CCOCC5)cc34)cc2)CC1 [Example A1]: 1.0
- CCN1CCN(c2ccc(-c3nc(C)c(C)c4[nH]c(CCN5CCOCC5)cc34)cc2)CC1 [Example B8]: 1.0
- Cc1nc(-c2ccc(N3CCN(C(C)C)CC3)cc2)c2cc(CN3CCCC3)[nH]c2c1C [Example A40]: 1.0
- Cc1cc2c(cc(CCN3CCOCC3)n2C)c(-c2ccc(N3CCN(C(C)C)CC3)c(C(F)(F)F)c2)n1 [Example B18]: 1.0
- CC(C)N1CCN(c2ccc(-c3nccc4[nH]c(CN5CCOCC5)cc34)cn2)CC1 [Example A53]: 1.0
- Cc1cc2[nH]c(CCN3CCOCC3)cc2c(-c2ccc(N3CCN(C(C)C)CC3)cc2)n1 [Example B3]: 1.0
- CC(C)N1CCN(c2ccc(-c3nccc4[nH]c(CN5CC(O)C5)cc34)cc2)CC1 [Example A72]: 0.0
- CN1CCC(Oc2ccc(-c3nccc4[nH]c(CN5CCOCC5)cc34)cc2)CC1 [Example A62]: 0.0
- Cc1cc2c(cc(CCN3CCOCC3)n2C)c(-c2ccc(N3CCN(C(C)C)CC3)cc2)n1 [Example B11]: 1.0
- Cc1nc(-c2ccc(N3CCN(C)CC3)cc2)c2cc(CN3CCOCC3)[nH]c2c1C [Example A37]: 1.0
- CN1CCN(c2ccc(-c3nccc4[nH]c(CN5CCC(F)CC5)cc34)cc2)CC1 [Example A25]: 1.0

Each recorded value in this set is attributed to patent US9643967B2.
